# Study Target: PDE1A (Homo sapiens, UniProt P54750)
# Sequence (P54750 whole entry): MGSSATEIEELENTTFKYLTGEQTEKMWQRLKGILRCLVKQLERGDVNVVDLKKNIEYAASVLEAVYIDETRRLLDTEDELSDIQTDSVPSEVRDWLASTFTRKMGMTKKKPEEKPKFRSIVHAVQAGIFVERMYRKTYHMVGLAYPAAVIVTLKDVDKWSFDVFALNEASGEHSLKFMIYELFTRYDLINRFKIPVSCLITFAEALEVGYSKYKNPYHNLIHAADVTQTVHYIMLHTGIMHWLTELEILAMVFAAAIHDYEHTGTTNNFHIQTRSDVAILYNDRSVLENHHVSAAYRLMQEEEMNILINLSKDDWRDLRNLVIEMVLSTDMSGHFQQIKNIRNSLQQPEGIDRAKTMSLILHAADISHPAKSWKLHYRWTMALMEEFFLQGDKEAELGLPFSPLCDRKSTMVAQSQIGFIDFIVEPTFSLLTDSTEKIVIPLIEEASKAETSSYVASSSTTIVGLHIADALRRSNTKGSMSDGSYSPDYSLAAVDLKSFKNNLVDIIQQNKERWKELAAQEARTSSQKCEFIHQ
# Test: IMAP fluorescence polarization PDE assay, recombinant PDE isozymes
# Type: biochemical
# Test Context: substrate cGMP; read-out: IC50 of PQ10 cGMP

Input Smiles	Unit Annotation	IC50
COc1cc2ncnc(N3CC[C@@H](Oc4cnc5ccccc5n4)C3)c2cc1OC	µM	8.8

* * *

# Study Target: UniProtKB Q9HCR9
# Test: IMAP fluorescence polarization PDE assay, recombinant PDE isozymes
# Type: biochemical
# Test Context: substrate cAMP; read-out: IC50 of PQ10 cAMP

Input Smiles	Unit Annotation	IC50
COc1cc2ncnc(N3CC[C@@H](Oc4cnc5ccccc5n4)C3)c2cc1OC	µM	30.1

* * *

# Study Target: PDE11A (Homo sapiens)
# Sequence (Q9HCR9 whole entry): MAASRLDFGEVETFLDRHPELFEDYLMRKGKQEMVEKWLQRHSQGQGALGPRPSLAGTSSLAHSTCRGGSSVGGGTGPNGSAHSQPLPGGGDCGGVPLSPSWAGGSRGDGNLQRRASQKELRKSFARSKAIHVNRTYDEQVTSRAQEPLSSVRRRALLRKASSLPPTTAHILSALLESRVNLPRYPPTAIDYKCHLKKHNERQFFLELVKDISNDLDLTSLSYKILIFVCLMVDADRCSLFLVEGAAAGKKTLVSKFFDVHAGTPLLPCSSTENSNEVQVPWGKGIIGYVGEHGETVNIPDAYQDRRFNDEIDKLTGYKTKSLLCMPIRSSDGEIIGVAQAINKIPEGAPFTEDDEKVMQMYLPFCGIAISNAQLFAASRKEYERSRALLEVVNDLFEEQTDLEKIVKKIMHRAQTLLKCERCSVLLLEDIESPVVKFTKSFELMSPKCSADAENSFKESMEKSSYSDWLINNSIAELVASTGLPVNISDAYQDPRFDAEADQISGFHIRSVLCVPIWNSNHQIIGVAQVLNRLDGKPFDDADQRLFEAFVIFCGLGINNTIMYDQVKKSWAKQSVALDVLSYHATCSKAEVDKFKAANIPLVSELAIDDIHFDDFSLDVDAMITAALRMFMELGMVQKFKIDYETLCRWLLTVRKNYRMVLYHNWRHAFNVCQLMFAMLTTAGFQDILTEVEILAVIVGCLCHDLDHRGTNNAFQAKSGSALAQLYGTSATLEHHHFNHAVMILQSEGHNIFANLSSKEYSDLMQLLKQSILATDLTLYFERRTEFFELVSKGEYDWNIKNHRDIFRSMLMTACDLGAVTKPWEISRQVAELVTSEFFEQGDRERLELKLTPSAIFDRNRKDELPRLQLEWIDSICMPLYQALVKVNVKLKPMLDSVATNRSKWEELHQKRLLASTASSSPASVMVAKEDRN
# Test: IMAP fluorescence polarization PDE assay, recombinant PDE isozymes
# Format: biochemical
# Test Context: substrate cGMP; read-out: IC50 of PQ10 cGMP
pIC50: −log10 of the molar value.

Input Smiles	pIC50
COc1cc2ncnc(N3CC[C@@H](Oc4cnc5ccccc5n4)C3)c2cc1OC	4.88

* * *

# System: intracellular cGMP levels in HEK293 cells
# Test: cGMP biosensor assay (luciferase)
# Type: cell-based, human
# Test Context: Homo sapiens; HEK293 biosensor cells, SNP (100 µmol/L) stimulation; read-out: EC50 to induce cGMP elevation

Compound	EC50, µM
COc1cc2ncnc(N3CC[C@@H](Oc4cnc5ccccc5n4)C3)c2cc1OC [PQ10]	5.67

* * *

# Study Target: PDE3A (Homo sapiens, UniProt Q14432)
# Sequence (Q14432 whole entry): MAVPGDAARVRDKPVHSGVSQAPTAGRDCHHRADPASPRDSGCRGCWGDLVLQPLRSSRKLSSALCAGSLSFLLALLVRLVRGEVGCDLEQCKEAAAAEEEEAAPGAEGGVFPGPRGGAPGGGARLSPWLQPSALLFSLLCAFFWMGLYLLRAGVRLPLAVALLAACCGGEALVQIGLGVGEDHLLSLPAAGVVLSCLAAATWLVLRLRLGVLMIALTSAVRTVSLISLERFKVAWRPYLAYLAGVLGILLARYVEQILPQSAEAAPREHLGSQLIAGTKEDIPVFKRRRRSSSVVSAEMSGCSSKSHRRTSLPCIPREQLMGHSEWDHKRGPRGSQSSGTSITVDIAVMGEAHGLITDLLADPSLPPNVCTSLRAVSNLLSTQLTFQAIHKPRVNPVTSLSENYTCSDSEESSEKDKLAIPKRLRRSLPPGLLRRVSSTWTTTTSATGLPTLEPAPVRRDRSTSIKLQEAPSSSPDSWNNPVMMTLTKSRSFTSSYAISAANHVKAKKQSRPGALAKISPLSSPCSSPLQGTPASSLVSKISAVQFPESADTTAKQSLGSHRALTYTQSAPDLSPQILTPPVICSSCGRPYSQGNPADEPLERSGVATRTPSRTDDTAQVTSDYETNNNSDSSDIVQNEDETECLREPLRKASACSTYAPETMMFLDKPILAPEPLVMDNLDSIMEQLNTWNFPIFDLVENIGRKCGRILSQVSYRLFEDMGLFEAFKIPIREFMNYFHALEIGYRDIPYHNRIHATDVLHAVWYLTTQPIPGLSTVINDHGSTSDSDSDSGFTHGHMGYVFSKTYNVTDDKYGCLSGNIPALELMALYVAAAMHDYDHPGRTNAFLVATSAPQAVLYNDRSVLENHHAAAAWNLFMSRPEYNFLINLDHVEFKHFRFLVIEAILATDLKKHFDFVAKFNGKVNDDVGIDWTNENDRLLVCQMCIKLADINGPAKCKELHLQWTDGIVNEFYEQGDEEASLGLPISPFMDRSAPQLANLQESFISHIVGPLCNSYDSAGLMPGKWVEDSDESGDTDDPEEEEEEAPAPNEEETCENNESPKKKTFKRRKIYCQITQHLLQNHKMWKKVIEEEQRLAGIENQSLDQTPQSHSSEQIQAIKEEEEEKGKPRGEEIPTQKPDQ
# Test: IMAP fluorescence polarization PDE assay, recombinant PDE isozymes
# Type: biochemical
# Test Context: substrate cGMP; read-out: IC50 of PQ10 cGMP
# Description: The enzymatic activity of recombinant PDE or PDE activities in cell lysates were measured using the IMAP fluorescence polarization (FP) PDE assay (Molecular Devices) as previously described. PDE10 inhibitors and DMSO as the vehicle were added to assay buffer 10 minutes before the incubation with the enzyme reaction. Fluorescence polarization values were measured using Synergy H4 Hybrid Reader (BioTek).
pIC50: −log10 of the molar value.
Measurement Type: pIC50

Input Smiles	Study Target	Quantitative Readout
COc1cc2ncnc(N3CC[C@@H](Oc4cnc5ccccc5n4)C3)c2cc1OC	PDE3A (Homo sapiens, UniProt Q14432)	6.49

* * *

# Tested on: HOP62 cells
# Test: Growth assay (Cell Titer Glo)
# Format: cell-based, human
# Test Context: Homo sapiens, HOP-62; HOP62, 72 hours, 5% serum; read-out: Growth inhibition IC50
pIC50: −log10 of the molar value.
Measurement Type: pIC50

Input Smiles	Measurement Type	Quantitative Readout
Cn1cc(-c2ccncc2)c(-c2ccc(OCc3ccc4ccccc4n3)cc2)n1	pIC50	4.64
COc1cc2ncnc(N3CC[C@@H](Oc4cnc5ccccc5n4)C3)c2cc1OC	pIC50	6.00

* * *

# Test system: EKVX cells
# Test: Growth assay (Cell Titer Glo)
# Type: cell-based
# Test Context: Homo sapiens, 72 hours, read-out: Growth inhibition IC50

Compound	IC50 [µM]
Cn1cc(-c2ccncc2)c(-c2ccc(OCc3ccc4ccccc4n3)cc2)n1 [Pf-2545920]	18.6

* * *

# Study Target: PDE3A (Homo sapiens, UniProt Q14432)
# Test: IMAP fluorescence polarization PDE assay, recombinant PDE isozymes
# Type: biochemical
# Test Context: substrate cAMP; read-out: IC50 of PQ10 cAMP
# Description: The enzymatic activity of recombinant PDE or PDE activities in cell lysates were measured using the IMAP fluorescence polarization (FP) PDE assay (Molecular Devices) as previously described. PDE10 inhibitors and DMSO as the vehicle were added to assay buffer 10 minutes before the incubation with the enzyme reaction. Fluorescence polarization values were measured using Synergy H4 Hybrid Reader (BioTek).

Input Smiles	Study Target	Unit Annotation	IC50
COc1cc2ncnc(N3CC[C@@H](Oc4cnc5ccccc5n4)C3)c2cc1OC	PDE3A (Homo sapiens, UniProt Q14432)	µM	0.47

Numbers sourced from paper PMC5642477.
